Cited source for all entries: PubChem BioAssay (NCI)

Tested on: COLO 205 colon
assaySummary: NCI tumour cell line growth inhibition, 48 h; in the data active = GI50 below about 0.43 µM; inactive = the rest
Choose one outcome from this list and give only that: TRUE = active, FALSE = inactive

# count of solved cases: 10
compound	classLabel
C/C(=N\NC(=O)c1cccnc1)c1cccc(/C(C)=N/NC(=O)c2cccnc2)n1.CC(=O)[O-].CC(=O)[O-].[Zn+2]	FALSE
CC1(C)CCC[C@]2(C)c3cc(O)ccc3CC[C@@H]12	FALSE
COc1ccc(C2=Nc3c/c(=C\c4c(O)[nH]c5ccc(Cl)cc45)ccc3=N2)cc1	FALSE
Cc1cc([N+](=O)[O-])ccc1NS(=O)(=O)c1cc(Cl)ccc1Cl	FALSE
Oc1ccc2ccccc2c1C1NN=C(c2ccccc2)S1 (stereo not drawn)	FALSE
O=C(O)c1ccc([S-])cc1.[Au+].c1ccc(CN2[CH-]N(Cc3ccccc3)C(c3ccccc3)=C2c2ccccc2)cc1	TRUE
C[n+]1c2ccccc2c(Nc2ccc(NS(=O)(=O)CCCCN=C(N)N)cc2)c2ccc(N)cc21	FALSE
CC1(C)N=C(N)N=C(N)N1c1ccc(CCc2ccc(Cl)cc2S(=O)(=O)F)c(Cl)c1	FALSE
C[C@]1(C(=O)O)N[C@H](C(=O)O)CS1	FALSE
COc1ccc(-c2nn(-c3cccc(Cl)c3)cc2-c2c(C#N)c(=O)n3[nH]c(-c4ccc(C)cc4)nc3c2C#N)cc1	FALSE

Q: So what was the verdict on CN[C@@H]1C[C@H]2O[C@@](C)([C@@H]1OC)n1c3ccccc3c3c4c(c5c6ccccc6n2c5c31)C(=O)N[C@H]4O in this test?
A: TRUE

Q: Field entry: CC(C)(c1ccc(Oc2ccc(C#N)c(C#N)c2)cc1)c1ccc(Oc2ccc(C#N)c(C#N)c2)cc1
A: FALSE

Q: Please answer likewise for C=C1C(=O)O[C@@H]2OC3(C)CCC4C(C)CCC1C42OO3 (stereo partly drawn)
A: FALSE

====

Overview of recorded TGI for various compounds
System: U251 CNS
assaySummary: NCI tumour cell line growth inhibition, 48 h
Response body: numeric value in µM, unit text excluded.

compound	measurementName	recordedMeasurement
COc1ccc2c3c(c4ccccc4cc13)C(=O)N(CCN(C)CCN)C2=O	TGI	1.21
CC1(C)CCC[C@]2(C)c3cc(O)ccc3CC[C@@H]12	TGI	29.1
O=C1C(Cl)=C(Nc2cccc(O)c2)C(=O)N1Cc1ccc(Cl)cc1	TGI	26.9

Next up:
Q: Any idea what TGI was measured for CCCCCCCCC(O)C#CC(N)=O (centres undefined) ?
A: 20.9

====

Reported TGI values for a set of compounds
Test system: DU-145 prostate
assaySummary: NCI tumour cell line growth inhibition, 48 h

Solved cases (3 shown):
compound	targetDesc	TGI
O=C(Cn1c(=O)oc2ccc(C(=O)c3ccccc3Cl)cc21)c1ccc([N+](=O)[O-])cc1	DU-145 prostate	> 100 µM
COc1ccc2nc3cc([N+](=O)[O-])ccc3c(NCCCN(CCO)CCO)c2c1	DU-145 prostate	43.4 µM
O=C1c2ccccc2-c2nnc(-c3ccc(Cl)cc3)cc21	DU-145 prostate	> 10 µM

Q: Form field: TGI recorded for CC(=O)C1COC(O)C1C (centres undefined) with DU-145 prostate (enter value)
A: 70.8 µM

Q: Item: Cc1cc(C)c2c(=N)c3ccccc3n(CCCCCCn3c4ccccc4c(=N)c4c(C)cc(C)nc43)c2n1
A: 3.13 µM
